B1: TPD52L2 (parent)
chain: EAEEEELRAELTKVEEEIVTLRQV

variants of: B1; assay: protein stability index of a GFP-peptide fusion (GPS, HEK-293T) (PSI 1-6); higher = more stable; settings: c terminus: a fixed tail appended;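 further: lentivirally expressed fusions sorted by FACS into six bins by GFP to DsRed ratio, PSI derived from sequencing read proportions per bin multiplied by bin number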
PROPERTY NAME: protein stability index
No unit in the answer, please; the number alone is enough.

Example entries and their recorded answers appear below.
Looking up A9C , I see its protein stability index listed as 3.98

The variant identified as R22Y registered its protein stability index at 2.54

Summary for this variant, L21R : protein stability index is 5.56

Further cases:
E3L has a reported protein stability index of 2.76

Short answer for R22D : protein stability index was 3.54

Reported protein stability index of E6H : 2.91
